Provide the recorded IC50 for the entries that follow.
# Tested on: T47D (PI3Kα-H1047R) cell line
# Assay Summary: HTRF phospho-AKT(S473) cell assay in T47D cells
# Format: cell-based, human
# Condition Notes: Homo sapiens; HTRF phospho-AKT(S473), T47D (PI3Kα-H1047R) cells, 2 hours compound incubation

[[record]]
molecule = "Cc1cc([C@@H](C)Nc2ccc(Cl)nc2C(=O)NS(C)(=O)=O)c2nc(N3CC[C@@H](c4cnc(C)nc4)C3)n(C)c(=O)c2c1 (relative stereo) [Compound 657]"
measured_on = "T47D (PI3Kα-H1047R) cell line"
result = "250 to 500 nM"


Respectfully, I request IC50 for each entry included below.
1. COc1ccc([C@H]2[C@@H]3CN(c4nc5c([C@@H](C)Nc6ccc(Cl)nc6C(=O)NS(C)(=O)=O)cc(C)cc5c(=O)n4C)C[C@@H]32)cn1 [Compound 610]
2. Cc1cc([C@@H](C)Nc2ccc(Cl)nc2C(=O)NS(C)(=O)=O)c2nc(C3CCN(c4ccccc4)CC3)n(C)c(=O)c2c1 [Compound 831]
3. Cc1cc([C@@H](C)Nc2ccc(Cl)nc2C(=O)NS(C)(=O)=O)c2nc(N3CCC[C@@H](c4cnccn4)C3)n(C)c(=O)c2c1 (relative stereo) [Compound 618]
4. Cc1cc([C@@H](C)Nc2ccc(Cl)nc2C(=O)NS(C)(=O)=O)c2nc(-c3ccn4nc(C)nc4c3)n(C)c(=O)c2c1 [Compound 822]
5. Cc1cc([C@@H](C)Nc2ccc(Cl)nc2C(=O)NS(C)(=O)=O)c2nc([C@H]3CCCN(c4nccc(C)n4)C3)n(C)c(=O)c2c1 (mixture of isomers) [Compound 756]
6. [2H]C([2H])([2H])n1ccc([C@H]2[C@@H]3CN(c4nc5c([C@@H](C)Nc6ccc(Cl)nc6C(=O)NS(C)(=O)=O)cc(C)cc5c(=O)n4C)C[C@@H]32)n1 [Compound 493]
7. Cc1cc([C@@H](C)Nc2ccc(Cl)nc2C(=O)NS(C)(=O)=O)c2nc(N3C[C@H]4C[C@@H]3CN4c3ncc(Cl)cn3)n(C)c(=O)c2c1 [Compound 666]
8. Cc1cc([C@@H](C)Nc2ccc(Cl)nc2C(=O)NS(C)(=O)=O)c2nc(N3C[C@@H]4[C@H](C3)[C@H]4n3cc(C(F)(F)F)cn3)n(C)c(=O)c2c1 [Compound 741]

A:
1. < 250 nM
2. 250 to 500 nM
3. 250 to 500 nM
4. 250 to 500 nM
5. 500 to 1000 nM
6. < 250 nM
7. 250 to 500 nM
8. 500 to 1000 nM

The following molecules each have a reported value; give each one's IC50.
1. Cc1cc([C@@H](C)Nc2ccc(Cl)nc2C(=O)NS(C)(=O)=O)c2nc(N3C[C@@H]4[C@H](C3)[C@H]4c3cnn(C4CC4)n3)n(C)c(=O)c2c1 [Compound 559]
2. CC(=O)N1CC2CCC(C1)N2c1ccc(-c2nc3c([C@@H](C)Nc4ccc(Cl)nc4C(=O)NS(C)(=O)=O)cc(C)cc3c(=O)n2C)cc1F [Compound 801]

A:
["250 to 500 nM", "< 250 nM"]

* * *

# Test system: SKBR3 (PI3Kα-Wild Type) cell line
# Assay Summary: HTRF phospho-AKT(S473) cell assay in SKBR3 cells
# Format: cell-based, human
# Condition Notes: Homo sapiens, SK-BR-3; HTRF phospho-AKT(S473), SKBR3 (PI3Kα-Wild Type) cells, 2 hours compound incubation, PDGF-BB stimulated
pIC50: −log10 of the molar value.
Metric: pIC50

[[record]]
molecule = "Cc1cc([C@@H](C)Nc2ccc(Cl)nc2C(=O)NS(C)(=O)=O)c2nc(N3CCC(c4ncc(C)c(C)n4)CC3)n(C)c(=O)c2c1"
measured_on = "SKBR3 (PI3Kα-Wild Type) cell line"
metric = "pIC50"
result = "5.30 to 6.00"


// each molecule listed below needs its pIC50
1. Cc1cc([C@@H](C)Nc2ccc(Cl)nc2C(=O)NS(C)(=O)=O)c2nc(N3CCC[C@@H](c4nccc(C)n4)C3)n(C)c(=O)c2c1 (mixture of isomers) [Compound 633]
2. Cc1cc([C@@H](C)Nc2ccc(Cl)nc2C(=O)NS(C)(=O)=O)c2nc(-c3ccnc(O[C@@H]4CCN(C)CC4(F)F)c3)n(C)c(=O)c2c1
3. Cc1cc([C@@H](C)Nc2ccc(Cl)nc2C(=O)NS(C)(=O)=O)c2nc(N3C[C@@H]4[C@H](C3)[C@H]4c3nnc(C)s3)n(C)c(=O)c2c1
4. Cc1cc([C@@H](C)Nc2ccc(Cl)nc2C(=O)NS(C)(=O)=O)c2nc(N3C[C@@H]4[C@H](C3)[C@H]4c3nn(C)cc3F)n(C3CC3)c(=O)c2c1

A:
["≤ 5.30", "≤ 5.30", "5.30 to 6.00", "≤ 5.30"]

Fill in pIC50 for each of the 4 molecules listed.
1. Cc1cc([C@@H](C)Nc2ccc(Cl)nc2C(=O)NS(C)(=O)=O)c2nc(N3CCC(c4ccc[nH]c4=O)CC3)n(C)c(=O)c2c1
2. Cc1cc([C@@H](C)Nc2ccc(Cl)nc2C(=O)NS(C)(=O)=O)c2nc(N3C[C@@H]4[C@H](C3)[C@H]4c3cn(C(C)C)nn3)n(C)c(=O)c2c1
3. Cc1cc([C@@H](C)Nc2ccc(Cl)nc2C(=O)NS(C)(=O)=O)c2nc(N3C[C@@H]4[C@H](C3)[C@H]4c3cc4ncccn4n3)n(C)c(=O)c2c1
4. Cc1cc([C@@H](C)Nc2ccc(Cl)nc2C(=O)NS(C)(=O)=O)c2nc(-c3ccn4nc(C)nc4c3)n(C)c(=O)c2c1

A:
1: ≤ 5.30; 2: 5.30 to 6.00; 3: 5.30 to 6.00; 4: ≤ 5.30

Hey, quick one: what's pIC50 for each of these?
1. COc1nccnc1C1CCN(c2nc3c([C@@H](C)Nc4ccc(Cl)nc4C(=O)NS(C)(=O)=O)cc(C)cc3c(=O)n2C)CC1
2. Cc1cc([C@@H](C)Nc2ccc(Cl)nc2C(=O)NS(C)(=O)=O)c2nc(-c3cccc(Cl)c3Cl)n(C)c(=O)c2c1
3. Cc1cc([C@@H](C)Nc2ccc(Cl)nc2C(=O)NS(C)(=O)=O)c2nc(N3C[C@H]4C[C@@]4(c4cnc(C)nc4)C3)n(C)c(=O)c2c1 (relative stereo)

A:
1: ≤ 5.30; 2: ≤ 5.30; 3: ≤ 5.30

* * *

Can you tell me pIC50 for the items I'm about to list?
# System: T47D (PI3Kα-H1047R) cell line
# Assay Summary: HTRF phospho-AKT(S473) cell assay in T47D cells
# Format: cell-based, human
# Condition Notes: Homo sapiens; HTRF phospho-AKT(S473), T47D (PI3Kα-H1047R) cells, 2 hours compound incubation
pIC50: −log10 of the molar value.

[[record]]
compound = "Cc1cc([C@@H](C)Nc2ccc(Cl)nc2C(=O)NS(C)(=O)=O)c2nc(N3C[C@@H]4C[C@H]3CN4c3ccccn3)n(C)c(=O)c2c1 [Compound 604]"
result = "6.30 to 6.60"

[[record]]
compound = "Cc1cc([C@@H](C)Nc2ccc(Cl)nc2C(=O)NS(C)(=O)=O)c2nc([C@H]3[C@@H]4CN(c5cnc(C)nc5)C[C@@H]43)n(C)c(=O)c2c1 [Compound 820]"
result = "> 6.60"

[[record]]
compound = "Cc1cc([C@@H](C)Nc2ccc(Cl)nc2C(=O)NS(C)(=O)=O)c2nc(N3C[C@@H]4[C@H](C3)[C@H]4c3nn(C)c(C)c3F)n(C)c(=O)c2c1 [Compound 462]"
result = "> 6.60"


Go through the items and report each one's pIC50.
1. CC(=O)N1CCC(c2ccc(-c3nc4c([C@@H](C)Nc5ccc(Cl)nc5C(=O)NS(C)(=O)=O)cc(C)cc4c(=O)n3C)c(F)c2)CC1 [Compound 780]
2. Cc1cc([C@@H](C)Nc2ccc(Cl)nc2C(=O)NS(C)(=O)=O)c2nc(N3CCC[C@H](c4cnc(C)nc4)C3)n(C)c(=O)c2c1 (relative stereo) [Compound 646]
3. Cc1cc([C@@H](C)Nc2ccc(Cl)nc2C(=O)NS(C)(=O)=O)c2nc(N3CCC(c4cc(C)no4)CC3)n(C)c(=O)c2c1 [Compound 539]

A:
1: > 6.60; 2: > 6.60; 3: > 6.60

* * *

Hi there, I'd appreciate the recorded pIC50 for every entry that follows.
# Test system: T47D (PI3Kα-H1047R) cell line
# Assay Summary: HTRF phospho-AKT(S473) cell assay in T47D cells
# Assay type: cell-based, human
# Condition Notes: Homo sapiens; HTRF phospho-AKT(S473), T47D (PI3Kα-H1047R) cells, 2 hours compound incubation
pIC50: −log10 of the molar value.

[[record]]
molecule = "Cc1cc([C@@H](C)Nc2ccc(Cl)nc2C(=O)NS(C)(=O)=O)c2nc(N3CCC4(CCCN(c5ccn(C)n5)C4)C3)n(C)c(=O)c2c1 (stereo partly drawn) [Compound 708]"
measured_on = "T47D (PI3Kα-H1047R) cell line"
metric = "pIC50"
result = "6.30 to 6.60"

[[record]]
molecule = "Cc1cc([C@@H](C)Nc2ccc(Cl)nc2C(=O)NS(C)(=O)=O)c2nc(N3CCC(c4nc(C)no4)CC3)n(C)c(=O)c2c1 [Compound 595]"
measured_on = "T47D (PI3Kα-H1047R) cell line"
metric = "pIC50"
result = "> 6.60"

[[record]]
molecule = "Cc1cnc(C2CCN(c3nc4c([C@@H](C)Nc5ccc(Cl)nc5C(=O)NS(C)(=O)=O)cc(Cl)cc4c(=O)n3C)CC2)cn1 [Compound 442]"
measured_on = "T47D (PI3Kα-H1047R) cell line"
metric = "pIC50"
result = "> 6.60"


Required: pIC50, one value per molecule below.
1. Cc1cc([C@@H](C)Nc2ccc(Cl)nc2C(=O)NS(C)(=O)=O)c2nc(-c3ccc(N4CCN(C)CC4)cc3)n(C)c(=O)c2c1 [Compound 790]
2. Cc1cc([C@@H](C)Nc2ccc(Cl)nc2C(=O)NS(C)(=O)=O)c2nc(N3C[C@H]4C[C@@H](C3)C4c3n[nH]cc3F)n(C)c(=O)c2c1 (mixture of isomers) [Compound 650]
3. Cc1cc([C@@H](C)Nc2ccc(Cl)nc2C(=O)NS(C)(=O)=O)c2nc(N3CCC(n4cc(C(F)(F)F)cn4)CC3)n(C)c(=O)c2c1 [Compound 681]
4. Cc1cc([C@@H](C)Nc2ccc(Cl)nc2C(=O)NS(C)(=O)=O)c2nc(N3CCC(c4cnn(C)n4)CC3)n(C)c(=O)c2c1 [Compound 489]
5. Cc1cc([C@@H](C)Nc2ccc(Cl)nc2C(=O)NS(C)(=O)=O)c2nc(N3CCC(c4ncn(CC(F)(F)F)n4)CC3)n(C)c(=O)c2c1 [Compound 469]
6. CCn1c(N2CCC(n3cc(C)cn3)CC2)nc2c([C@@H](C)Nc3ccc(Cl)nc3C(=O)NS(C)(=O)=O)cc(C)cc2c1=O [Compound 526]
7. [2H]C([2H])([2H])n1nc([C@H]2[C@@H]3CN(c4nc5c([C@@H](C)Nc6ccc(Cl)nc6C(=O)NS(C)(=O)=O)cc(C)cc5c(=O)n4C)C[C@@H]32)c(Cl)c1C [Compound 661]
8. Cc1cc([C@@H](C)Nc2ccc(Cl)nc2C(=O)NS(C)(=O)=O)c2nc(N3CCC(c4cc(C)[nH]n4)CC3)n(C)c(=O)c2c1 [Compound 715]

A:
1: > 6.60; 2: 6.30 to 6.60; 3: 6.30 to 6.60; 4: > 6.60; 5: 6.30 to 6.60; 6: > 6.60; 7: 6.30 to 6.60; 8: > 6.60

molecule Cc1cnc(C2[C@H]3CN(c4nc5c([C@@H](C)Nc6ccc(Cl)nc6C(=O)NS(C)(=O)=O)cc(C)cc5c(=O)n4C)C[C@@H]23)nc1 (stereo partly drawn) [Compound 515] , pIC50 observed: > 6.60
